Entries and their pKd
# tested target: (NVDP)3(NANP)2 (Plasmodium falciparum)
# procedure details: SPR, antibody on chip
pKd: −log10 of the molar value.
property name: pKd

[[record]]
binder = "AB-007042 (antibody, V domains shown) VH: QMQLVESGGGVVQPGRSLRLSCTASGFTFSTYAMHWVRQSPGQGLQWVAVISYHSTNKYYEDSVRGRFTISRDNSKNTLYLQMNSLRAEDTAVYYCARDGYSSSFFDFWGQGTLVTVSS VL: DIQMTQSPSTLSASVGDRVAITCRASQDISRWLAWYQQQPGKAPKLLMSGASVLESGVPSRFSGSGSGTEFTLTISSLQPDDFATYYCQHYNSYFVTFGQGTKVEIK"
result_number = 5.64

[[record]]
binder = "AB-007029 (antibody, V domains shown) VH: QVQLVESGGGVVQPGRSLRLSCTASGFTFSTYAMHWVRQSPGQGLQWVAVISYHSTNKYYEDSVRGRFTISRDNSKNTLYLQMNSLRAEDTAVYYCARDGYSSSFFDFWGQGTLVTVSS VL: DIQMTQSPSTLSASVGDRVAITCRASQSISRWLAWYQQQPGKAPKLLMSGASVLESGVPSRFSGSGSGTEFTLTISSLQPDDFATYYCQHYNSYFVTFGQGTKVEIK"
result_number = 5.32

[[record]]
binder = "AB-007038 (antibody, V domains shown) VH: QMQLVESGGGVVQPGRSLRLSCTASGFTFSTYAMHWVRQSPGQGLQWVAVISYHSTNKYYEDSVRGRFTISRDNSKNTLYLQMNSLRAEDTAVYYCARDGYSSSFFDYWGQGTLVTVSS VL: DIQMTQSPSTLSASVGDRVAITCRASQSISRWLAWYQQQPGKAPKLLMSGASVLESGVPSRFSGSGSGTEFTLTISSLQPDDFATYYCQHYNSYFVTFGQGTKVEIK"
result_number = 5.51


Provenance of the data: patent US20220195023A1
